Target or system: CCK receptor (Rattus norvegicus)
Construct: The whole pancreas was dissected free of fat tissue and was homogenized; from tissue; host or cells: rat whole pancreas membranes
Sequence (P30551 whole entry): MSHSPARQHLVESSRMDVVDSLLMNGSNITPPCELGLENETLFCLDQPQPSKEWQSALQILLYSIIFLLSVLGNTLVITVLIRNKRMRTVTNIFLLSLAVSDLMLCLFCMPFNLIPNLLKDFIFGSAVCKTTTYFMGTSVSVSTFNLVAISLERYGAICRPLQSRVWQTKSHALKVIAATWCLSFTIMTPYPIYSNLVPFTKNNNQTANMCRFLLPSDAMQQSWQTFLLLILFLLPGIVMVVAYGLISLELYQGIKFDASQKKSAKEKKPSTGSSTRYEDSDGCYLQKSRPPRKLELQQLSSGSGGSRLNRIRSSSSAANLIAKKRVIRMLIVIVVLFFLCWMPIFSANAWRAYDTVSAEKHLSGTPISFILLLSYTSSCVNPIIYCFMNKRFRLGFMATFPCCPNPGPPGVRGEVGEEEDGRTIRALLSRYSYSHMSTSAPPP
Protocol description: CCK receptor binding (inhibition of specific 125I-CCK-33 binding to whole pancreas membranes)
Design: species or system Male Sprague-Dawley rats
Conditions used: rat pancreas, pH 7.7, 37° C., 30 minutes; printed in parentheses
Quantity measured: IC50 (nM)
Kindly provide the numeric value in nM only, without the unit symbol.

Q. Quick one: IC50 of CC(C)C[C@@H]1N[C@H]2N(C1=O)c1ccccc1[C@@]2(O)C[C@@H]1NC(=O)c2ccccc2-n2c1nc1ccccc1c2=O ?
A. 1300

----------
Target or system: CCK receptor (Rattus norvegicus)
Construct: The whole pancreas was dissected free of fat tissue and was homogenized; from tissue; host or cells: rat whole pancreas membranes
Protocol description: CCK receptor binding (inhibition of specific 125I-CCK-33 binding to whole pancreas membranes)
Parameters: species or system Male Sprague-Dawley rats
Conditions used: rat pancreas, pH 7.7, 37° C., 30 minutes
Quantity measured: pIC50
Scale: pIC50 equals -log10([C]), with [C] in mol/L.

Q. Quick check: pIC50 of CC(C)C[C@@H]1N[C@H]2N(C1=O)c1ccccc1[C@@]2(O)C[C@@H]1NC(=O)c2ccccc2-n2c1nc1ccccc1c2=O ?
A. 5.88
